molecular target: T1, ZIKV (prM80E) with a C-terminal myc-myc-hexahistidine tag (Zika virus, UniProt A0A024B7W1 104-694); assay: SPR, mAb captured, 37C
T1 construct: also called ZIKV (prM80E)-mmH; ZIKV-mmH
Please mark Satisfied if the recorded kon is equal to or greater than 800000 M⁻¹ s⁻¹, and Not satisfied if it falls below.

Solved cases (3 shown):
[
  {
    "binder": "H4H25630P (antibody, V domains shown) VH: QVQLVQSGAEVKRPGASVKVSCKASDYTFTDYGISWVRQAPGQGLEWMGWFNTYNGNTNYAQKFQGRITMTTDTSTSTAYMELRSLRSDDTAIYYCARDWGLHYFENWGQGTLVTVSS VL: EIVLTQSPGTLSLSPGERATLSCRASQSVRNSYLAWYQQKPGQAPRLLIYGASSRDTGIPDRFSGSGSGTDFTLTISRLEPEDFAVYYCQQYGRSPWTFGQGTKVEIK",
    "labelValue": "Satisfied"
  },
  {
    "binder": "H4H25710N (antibody, V domains shown) VH: EVQLLESGGGLVQPGGSLRLSCAASGFTVSNNYMSWVRQAPGKGLEWVSVIYSGGRTNYGDSVKGRFTISRDNSKNTLYLQMNSLRAEDTAVYYCARENYDFWSGDPYGWDVWGQGTTVTVSS VL: DIQMTQSPSSLSASVGDRVTITCRASQDISNYLAWFQQKPGKAPKSLIYGASSLQRGVPSKFRGSGSGTDFTLTISSLQPEDFASYYCQQYNSYPYTFGQGTKLEIK",
    "labelValue": "Not satisfied"
  },
  {
    "binder": "H4H25633P (antibody, V domains shown) VH: EVQLVESGGGLVQPGRSLRLSCAASGFTFDDYAIHWVRQAPGKGLEWVSGISWNSGYLGYADSVKGRFTISRDNAKNSLYLQMNSLRAEDTAFYYCAKDVAWGSVRHVFEIWGQGTMVTVSS VL: EIVLTQSPGTLSLSPGERATLSCRASQTITGNQLAWYQQKPGQAPRLLIYFTSSRATGIPDRFSGSGSGTDFSLTISRLEPEDFAVYFCQQFGYSPWTFGQGTKVEIK",
    "labelValue": "Not satisfied"
  }
]

Please look at the following binder next.
# input API: above_or_equal(metric=kon, cutoff=800000 M⁻¹ s⁻¹) for item H4H25602P (antibody, V domains shown) VH: EVQLVESGGGLVQPGGSLRLSCAASGFTVSSNYMSWVRQAPGSGLEWVSVIYSGGITHYVDSVKGRFTISRHNSKNTLYLQMNSLRAEDTAMYYCARERYSGITGNPYGFDIWGQGTMVTVSS VL: DIQLTQSPSFLSASVGDRVTITCWASQDISSYLAWYQQKPGIAPKLLIYAASTLQSGVPSRFSGSGSGTEFTLTISSLQPEDFATYYCQQLNIYPFTFGPGTKVDIK
# output Not satisfied
